- Tested on: MDR1
- Test Protocol: Apparent permeability across MDCK cells expressing human MDR1
- Format: ADME, cell-based, Canis lupus familiaris
- Run Parameters: dog, MDCK-MDR1

# Compound, Papp
data = [
    ("CC[C@H](NC(=O)c1c([S+](C)[O-])c(-c2ccccc2)nc2ccccc12)c1ccccc1 (mixture of isomers)", "9.4 ×10⁻⁶ cm/s"),
    ("CC[C@H](NC(=O)c1c(CS(C)(=O)=O)c(-c2ccccc2)nc2ccccc12)c1ccccc1 (mixture of isomers)", "11 ×10⁻⁶ cm/s"),
    ("CC[C@H](NC(=O)c1c(S(C)(=O)=O)c(-c2ccccc2)nc2ccccc12)c1ccccc1 (mixture of isomers)", "11 ×10⁻⁶ cm/s"),
]
